Provenance of the data: the supplement of paper PMC11061612

system: KG-1 (Acute Myeloid Leukemia); test: Bliss excess, mean over the matrix (fraction); higher = more synergy;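 note: after 72 h of two-drug dosing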
Measured Quantity: Bliss excess

INSERT INTO measurements (molecule, recorded_value) VALUES
  ('CN(C)CCCOc1ccc(-c2ccc3ncc4c(c3c2)n(C2CCOCC2)c(=O)n4C)cn1 [AZD0156] + C=CCn1c(=O)c2cnc(Nc3ccc(N4CCN(C)CC4)cc3)nc2n1-c1cccc(C(C)(C)O)n1 [AZD1775] (first compound max 1 µM, partner max 1 µM)', -0.0194);

---

system: TC-YIK (Other Solid Carcinomas); experiment: Bliss excess, mean over the matrix (fraction); higher = more synergy
The following compounds are listed with their measured Bliss excess values.
Measured Quantity: Bliss excess

INSERT INTO assay_data (compound, recorded_value) VALUES
  ('Cn1cnc2c(F)c(Nc3ccc(Br)cc3Cl)c(C(=O)NOCCO)cc21 [Selumetinib] + CCN(CCO)CCCOc1ccc2c(Nc3cc(CC(=O)Nc4cccc(F)c4)[nH]n3)ncnc2c1 [AZD2811] (first compound max 10 µM, 7x7, partner max 1 µM)', -0.0495),
  ('CN(CCO)CC[C@H](CSc1ccccc1)Nc1ccc(S(=O)(=O)NC(=O)c2ccc(N3CCC([C@@H](O)c4ccccc4-c4ccc(Cl)cc4)CC3)cc2)cc1S(=O)(=O)C(F)(F)F [AZD4320] + Nc1ccn([C@@H]2O[C@H](CO)[C@@H](O)C2(F)F)c(=O)n1 [Gemcitabine] (first compound max 1 µM, 7x7, partner max 0.3 µM)', -0.0091),
  ('COc1nnc2ccc(N3CCC(c4ccc(OCCN5CCN(C)C(=O)[C@H]5C)cc4)CC3)nn12 [AZD5153] + C=CCn1c(=O)c2cnc(Nc3ccc(N4CCN(C)CC4)cc3)nc2n1-c1cccc(C(C)(C)O)n1 [AZD1775] (first compound max 1 µM, partner max 1 µM)', -0.0712);
